- Conditions: in methanol, 283.15 K
Property: solubility (mole fraction)
// return just the number, without any unit appended

In: State its solubility (mole fraction) for this compound: COCCOC(=O)C1=C(C)NC(C)=C(C(=O)OC(C)C)C1c1cccc([N+](=O)[O-])c1 (stereo unspecified)
Out: 0.0178

###

- Conditions: in cyclohexanone, 318.15 K
Property: solubility (mole fraction)
// return just the number, without any unit appended

In: State its solubility (mole fraction) for this molecule: COCCOC(=O)C1=C(C)NC(C)=C(C(=O)OC(C)C)C1c1cccc([N+](=O)[O-])c1 (stereo unspecified)
Out: 0.0375

###

- Conditions: in ethyl formate, 308.15 K
Property: solubility (mole fraction)

In: State its solubility (mole fraction) for this molecule: COCCOC(=O)C1=C(C)NC(C)=C(C(=O)OC(C)C)C1c1cccc([N+](=O)[O-])c1 (stereo unspecified)
Out: 0.00305

###

- Conditions: in methyl acetate, 288.15 K
Property: solubility (mole fraction)
// return just the number, without any unit appended

In: State its solubility (mole fraction) for this molecule: COCCOC(=O)C1=C(C)NC(C)=C(C(=O)OC(C)C)C1c1cccc([N+](=O)[O-])c1 (stereo unspecified)
Out: 0.00573

###

- Conditions: in n-propanol, 308.15 K
Property: solubility (mole fraction)
// return just the number, without any unit appended

In: State its solubility (mole fraction) for this molecule: COCCOC(=O)C1=C(C)NC(C)=C(C(=O)OC(C)C)C1c1cccc([N+](=O)[O-])c1 (stereo unspecified)
Out: 0.0216

###

- Conditions: in ethanol, 293.15 K
Property: solubility (mole fraction)

In: State its solubility (mole fraction) for this molecule: COCCOC(=O)C1=C(C)NC(C)=C(C(=O)OC(C)C)C1c1cccc([N+](=O)[O-])c1 (stereo unspecified)
Out: 0.0198

###

- Conditions: in acetonitrile, 298.15 K
Property: solubility (mole fraction)

In: State its solubility (mole fraction) for this compound: COCCOC(=O)C1=C(C)NC(C)=C(C(=O)OC(C)C)C1c1cccc([N+](=O)[O-])c1 (stereo unspecified)
Out: 0.00311

###

- Conditions: in isopropanol, 313.15 K
Property: solubility (mole fraction)
// return just the number, without any unit appended

In: State its solubility (mole fraction) for this compound: COCCOC(=O)C1=C(C)NC(C)=C(C(=O)OC(C)C)C1c1cccc([N+](=O)[O-])c1 (stereo unspecified)
Out: 0.0249

###

- Conditions: in isopentanol, 293.15 K
Property: solubility (mole fraction)
// return just the number, without any unit appended

In: State its solubility (mole fraction) for this compound: COCCOC(=O)C1=C(C)NC(C)=C(C(=O)OC(C)C)C1c1cccc([N+](=O)[O-])c1 (stereo unspecified)
Out: 0.00953

###

- Conditions: in ethyl acetate, 283.15 K
Property: solubility (mole fraction)
// return just the number, without any unit appended

In: State its solubility (mole fraction) for this molecule: COCCOC(=O)C1=C(C)NC(C)=C(C(=O)OC(C)C)C1c1cccc([N+](=O)[O-])c1 (stereo unspecified)
Out: 0.00145

###

- Conditions: in isobutanol, 293.15 K
Property: solubility (mole fraction)
// return just the number, without any unit appended

In: State its solubility (mole fraction) for this molecule: COCCOC(=O)C1=C(C)NC(C)=C(C(=O)OC(C)C)C1c1cccc([N+](=O)[O-])c1 (stereo unspecified)
Out: 0.0107

Source: BigSolDB 2.1
